Recorded values, source the supplement of paper PMC10724198.

test system: Saccharomyces cerevisiae; assay: protein stability index of tFT-peptide fusion (C-terminal peptide) (PSI (0-1 scale)); higher = more stable (slower turnover); details: genetic background: wild type; temperature: 30 C;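 note: PSI is a weighted mean of sequencing reads over stability bins, variants kept only with over 10 reads, mCherry proximal and sfGFP distal, peptide attached via GGGS linker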
Give protein stability index for every item shown.
Answers are plain numbers.

GKKKRKTKGKNR : 0.663

Lab note: each sequence below needs its protein stability index filled in.
1. KNEESTKREGHF
2. FECLLFVNLLVI
3. WGCTGGRGRLVC

[0.669, 0.288, 0.428]

Lab note: each sequence below needs its protein stability index filled in.
1. IACDPNNRKDFT
2. DIVVGANISSIN
3. TMCRGGVSSQDL
4. SSSFFLFPVGFF

[0.627, 0.641, 0.662, 0.784]

Lab note: each sequence below needs its protein stability index filled in.
1. YGHLPLLVLFCV
2. GGRVCGGRVEGQ
3. SLPPPPARAAIL
4. DSQSRRFDRSRN
5. LPFPLGDSRGSC
6. HPPSPPPPPSRL
7. PALRTTRCLPLP
8. VLFSSDLIVPQL

1: 0.366; 2: 0.684; 3: 0.668; 4: 0.671; 5: 0.697; 6: 0.713; 7: 0.703; 8: 0.725
